- assayed_target: T1, human interleukin 13 receptor subunit alpha 2 (IL-13RA2) (human, UniProt Q14627 27-380)
- T1 sequence (looked up): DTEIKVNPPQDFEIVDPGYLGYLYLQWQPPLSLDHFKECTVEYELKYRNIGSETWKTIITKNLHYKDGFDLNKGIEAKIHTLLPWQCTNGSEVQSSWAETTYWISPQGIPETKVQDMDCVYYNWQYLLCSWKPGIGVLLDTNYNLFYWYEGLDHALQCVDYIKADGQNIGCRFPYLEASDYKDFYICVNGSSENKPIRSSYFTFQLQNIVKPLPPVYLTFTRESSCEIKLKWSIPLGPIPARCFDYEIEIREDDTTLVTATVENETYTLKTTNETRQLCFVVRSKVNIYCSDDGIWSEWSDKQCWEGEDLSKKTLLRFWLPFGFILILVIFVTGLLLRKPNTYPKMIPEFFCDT
- protocol_notes: cell-based or functional assay
Answer each item with its documented internalization EC50 (pHAb dye), CHO-K1/H_IL-13RA2 cells.
One number for each entry, in nM.

Solved cases (3 shown):
Task: Return reported internalization EC50 (pHAb dye), CHO-K1/H_IL-13RA2 cells. Input binder: xi54A4F7 hIgG1 (antibody, V domains shown) VH: EVKLVESGGGLVKPGGSLKLSCAASGFTFSSYGMSWVRQTPEKRLEWVATISGGGSYTYYPDSVKGRFTISRDNAKNNLYLQMSSLRSEDTALYYCARRDLRSAMDHWGQGTSVTVSS VL: DIVMTQSQKFMSTSVGDRVSVTCRASQNVDINVAWYQQKPGQSPKSLIYSASYRYSGVPDRFTGSGSGTDFTLTISNVQSEDLAEYFCQQYNSYPLTFGGGTKLEIR
Result: 1.42

Task: Return reported internalization EC50 (pHAb dye), CHO-K1/H_IL-13RA2 cells. Input binder: xi73A11E2 hIgG1 (antibody, V domains shown) VH: EVKLVESGGGLVKPGGSLKLSCAASGFTFSSYGMSWVRQTPEKRLEWVATISGGGSYTYYPDSVKGRFTISRDNARNNLYLQMNSLRSEDTALYYCARRDLRSAMDYWGQGTSVTVSS VL: DIVMTQSQKFMSTSVGDRVSVTCKASQNVDINVAWYQQKPGQSPKALIYSASYRYSGVPDRFTGSGSGTDFTLTISNVQSEDLAEFFCQQYNSYPLTFGGGTKLEIK
Result: 1.52

Task: Return reported internalization EC50 (pHAb dye), CHO-K1/H_IL-13RA2 cells. Input binder: xi62A8D8 hIgG1 (antibody, V domains shown) VH: EVKLVESGGGLVKPGGSLKLSCAASGFTFSSYGMSWVRQTPEKRLEWVATISGGGSYTYYPDSVKGRFTISRDNAKNNLYLQMSSLRSEDTALYYCARRDLRSAMDYWGQGTSVTVSS VL: DIVMTQSQKFMSTSVGDRVSVTCKASQNVDINVAWYQQKPGQSPKALIYSASYRYSGVPDRFTGSGSGTDFTLTISNVQSEDLAEFFCQQYNNYPLTFGGGTKLEIK
Result: 1.58

Others:
Task: Return reported internalization EC50 (pHAb dye), CHO-K1/H_IL-13RA2 cells. Input binder: xi34A5G9 hIgG1 (antibody, V domains shown) VH: EVHLQQSGPELVKPGASVKISCKTSGYTFTEYTMHWVKQSHGKSLEWIGRINPNNGIAEYKQTFKDKATLAVDKSSSTAYMEFRSLTSEDSAVYYCARGEGYGYWFAYWGQGTLVTVSA VL: DIQMTQSPASLSASVGETVTITCRTSDNIYSYLAWYQQRQGKSPQLLVSNARTLAEGVPSRFSGSGSGTQFSLKINSLQPEDFGIYYCQHHSGTPFTFGSGTNLEIE
Result: 1.38
